PROTOCOL: RSV NHBE CC50 384 V2 (per Ex. U)
Format: cell-based
CONDITION: human
ASSAY READOUT: CC50 at 3 days (µM)
Express the result in µM but write the number alone.

Quick one: CC50 at 3 days for CCCCCCCCCCCCCCCCCC[C@H](COP(=O)(O)OC[C@@]1(C#N)O[C@@H](c2ccc3c(N)ncnn23)[C@H](O)[C@@H]1O)OCc1cc(F)cc(C#N)c1 [Compound 84] ? 24.5

Item: CCCCCCCCCCCCCCOC[C@H](COP(=O)(O)OC[C@@]1(C#N)O[C@@H](c2ccc3c(N)ncnn23)[C@H](O)[C@@H]1O)Oc1cc(C#N)ccn1 [Compound 69] 3.29

Item: CCCCCCCCCCCCCCCCOC[C@@H](COP(=O)(O)OC[C@@]1(C#N)O[C@@H](c2ccc3c(N)ncnn23)[C@H](O)[C@@H]1O)OCc1cc(F)cc(C#N)c1 [Compound 88] 7.53

Item: CCCCCCCCCCCCCCCCCCOC[C@H](COP(=O)(O)OC[C@@]1(C#N)O[C@@H](c2ccc3c(N)ncnn23)[C@H](O)[C@@H]1O)OCc1ccc(C#N)cc1OC [Compound 73] 3.82

Item: CCCCCCCCCCCCCCCCC[C@@H](COP(=O)(O)OC[C@@]1(C#N)O[C@@H](c2ccc3c(N)ncnn23)[C@H](O)[C@@H]1O)OCc1cc(F)cc(C#N)c1 [Compound 74] 1.54

Item: CCCCCCCCCCCCCCCCCCCC[C@H](COP(=O)(O)OC[C@@]1(C#N)O[C@@H](c2ccc3c(N)ncnn23)[C@H](O)[C@@H]1O)OCc1cc(F)cc(C#N)c1 [Compound 34] 7.25

Item: CCCCCCCCCCCCCCCCCCCC[C@@H](COP(=O)(O)OC[C@@]1(C#N)O[C@@H](c2ccc3c(N)ncnn23)[C@H](O)[C@@H]1O)OCc1cc(F)cc(C#N)c1 [Compound 70] 3.95

Item: CCCCCCCCCCCCCCCCCC[C@@H](COP(=O)(O)OC[C@@]1(C#N)O[C@@H](c2ccc3c(N)ncnn23)[C@H](O)[C@@H]1O)OCc1cc(Cl)cc(C#N)c1 [Compound 87] 3.45

Item: CCCCCCCCCCCCCCCCCCC[C@H](COP(=O)(O)OC[C@@]1(C#N)O[C@@H](c2ccc3c(N)ncnn23)[C@H](O)[C@@H]1O)OCc1ccc(C#N)c(OC(C)C)c1 [Compound 28] 7.56

Item: CCCCCCCCCCCCCCCCCCC[C@H](COP(=O)(O)OC[C@@]1(C#N)O[C@@H](c2ccc3c(N)ncnn23)[C@H](O)[C@@H]1O)Oc1cc(OC)c(C#N)c(OC)c1 [Compound 39] 6.46

Item: CCCCCCCCCCCCCCCCC[C@H](COP(=O)(O)OC[C@@]1(C#N)O[C@@H](c2ccc3c(N)ncnn23)[C@H](O)[C@@H]1O)OCc1cc(Cl)cc(C#N)c1 [Compound 76] 3.55
